- Test system: α-glucosidase (Yeast)
- test.details: Fluorescence quenching (Stern–Volmer) and thermodynamic parameters
- Assay type: binding
- measurement.conditions: 298 K

>  <compound>
C[C@@H]1O[C@@H](OC[C@H]2O[C@@H](Oc3c(-c4ccc(O)c(O)c4)oc4cc(O)cc(O)c4c3=O)[C@H](O)[C@@H](O)[C@@H]2O)[C@H](O)[C@H](O)[C@H]1O [Rutin]

>  <units.of.measure>
M⁻¹ s⁻¹

>  <Kq>
4.5e+12

$$$$
>  <compound>
O=c1c(O)c(-c2ccc(O)c(O)c2)oc2cc(O)cc(O)c12 [Quercetin, quercetin]

>  <units.of.measure>
M⁻¹ s⁻¹

>  <Kq>
1.071e+13

$$$$
>  <compound>
O=c1c(O)c(-c2ccc(O)cc2)oc2cc(O)cc(O)c12 [Kaempferol, kaempferol]

>  <units.of.measure>
M⁻¹ s⁻¹

>  <Kq>
2.223e+13

$$$$
>  <compound>
O=c1c(O[C@@H]2O[C@H](CO)[C@H](O)[C@H](O)[C@H]2O)c(-c2ccc(O)c(O)c2)oc2cc(O)cc(O)c12 [Hyperoside, hyperoside]

>  <units.of.measure>
M⁻¹ s⁻¹

>  <Kq>
1.243e+13

$$$$
>  <compound>
C[C@@H]1O[C@@H](Oc2c(-c3ccc(O)c(O)c3)oc3cc(O)cc(O)c3c2=O)[C@H](O)[C@H](O)[C@H]1O [Quercitrin, quercitrin]

>  <units.of.measure>
M⁻¹ s⁻¹

>  <Kq>
7.45e+12

$$$$

The measurements presented in this section are drawn from paper PMC9956223.
